cell viability values for the compounds below.
Tested on: myeloid leukemia patient primary cells Pat.11
experiment: cell viability (% survival relative to DMSO control); higher = less cytotoxic
recorded conditions: 100 nM; 72 h

The cases that follow already have their cell viability on record.
- smiles record: "CCn1c(=O)/c(=C2\\Sc3ccccc3N2C)s/c1=C\\c1cccc[n+]1CC.[Cl-]"
  cell viability: "99.3%"
- smiles record: "C=C1NC(=O)c2cc(CN(C)c3ccc(C(=O)N[C@@H](CCC(=O)O)C(=O)O)s3)ccc2N1"
  cell viability: "99.3%"
- smiles record: "CCCCCCCCCCCCC/C=C/[C@@H](O)[C@H](CO)N(C)C"
  cell viability: "94.1%"
- smiles record: "O=C(/C=C/c1cccnc1)NCCCCC1CCN(C(=O)c2ccccc2)CC1"
  cell viability: "1.05%"
- smiles record: "c1ccc2c(c1)SCc1c-2[nH]c2ccccc12"
  cell viability: "99.1%"

// cell viability lookup, compound = O=C(Oc1cccc(F)c1OC(=O)c1cccc(O)c1)c1cccc(O)c1 , result: > 100%

Value of cell viability reported for the compound Oc1ncc(F)c(O)n1 is 96.6%

###

Test system: myeloid leukemia patient primary cells Pat.9
experiment: cell viability (% survival relative to DMSO control); higher = less cytotoxic
recorded conditions: 100 nM; 72 h
Structures can show the parent of a compound that is named as a salt.
The label condition met is reserved for cell viability strictly under 70%; condition not met covers values equal to or above it.

Past entries and their recorded results:
- molecule: "CC(C)(Cc1ccccc1)NCC(O)c1ccc(O)c(NS(C)(=O)=O)c1 (stereo unspecified) [Zinterol hydrochloride]"
  assay target: "myeloid leukemia patient primary cells Pat.9"
  class name: "condition met"
- molecule: "C=C1NC(=O)c2cc(CN(C)c3ccc(C(=O)N[C@@H](CCC(=O)O)C(=O)O)s3)ccc2N1 [Raltitrexed]"
  assay target: "myeloid leukemia patient primary cells Pat.9"
  class name: "condition not met"
- molecule: "Nc1nc(O)c2c(CCc3ccc(C(=O)N[C@@H](CCC(=O)O)C(=O)O)cc3)c[nH]c2n1 [Pemetrexed]"
  assay target: "myeloid leukemia patient primary cells Pat.9"
  class name: "condition met"

Here's the next entry for you.
Hi there! Is cell viability for CCn1c(=O)/c(=C2\Sc3ccccc3N2C)s/c1=C\c1cccc[n+]1CC.[Cl-] [MKT-077] below 70%, do you know?
condition not met

###

Entries and their measured area under dose-response curve follow.
Test system: myeloid leukemia patient primary cells Pat.5
experiment: area under dose-response curve (viability, 1 nM-10 uM) (fraction (0-1)); higher = more sensitive
recorded conditions: 72 h

response.value for C=C1NC(=O)c2cc(CN(C)c3ccc(C(=O)N[C@@H](CCC(=O)O)C(=O)O)s3)ccc2N1 [Raltitrexed] (field: area under dose-response curve) = < 0.0301

// area under dose-response curve value for O=C(Oc1cccc(F)c1OC(=O)c1cccc(O)c1)c1cccc(O)c1 [WZB117] : 0.748

Given item CC(C)c1onc(-c2c(Cl)cccc2Cl)c1COc1ccc(/C=C/c2cccc(C(=O)O)c2)c(Cl)c1 [GW 4064] , the value recorded as its area under dose-response curve is 0.413

###

Test system: myeloid leukemia patient primary cells Pat.15
experiment: cell viability (% survival relative to DMSO control); higher = less cytotoxic
recorded conditions: 1000 nM; 72 h
Structures can show the parent of a compound that is named as a salt.
attribute measured: cell viability

A selection of reference data follows.
- compound: "Nc1ccn([C@@H]2O[C@H](CO)[C@@H](O)C2(F)F)c(=O)n1"
  recorded value: "78%"
- compound: "Cc1nnc(-c2ccc(N3CCC(Oc4ccccc4C(F)(F)F)CC3)nn2)s1"
  recorded value: "86.9%"
- compound: "CCC(CC#N)OC(=O)N[C@@H](C)c1cccc(NC(=O)Nc2ccc(-c3cnco3)c(OC)c2)c1 (stereo in doubt)"
  recorded value: "89.7%"
- compound: "CN(C)CCNC(=O)c1cccn2c(=O)c3cc4ccccc4cc3nc12"
  recorded value: "0.134%"
- compound: "C=C1NC(=O)c2cc(CN(C)c3ccc(C(=O)N[C@@H](CCC(=O)O)C(=O)O)s3)ccc2N1"
  recorded value: "95.1%"

Sample O=C(Cc1cccc(OC(F)(F)F)c1)Nc1ccc(CCCCc2nnc(NC(=O)Cc3ccccn3)s2)nn1 ; cell viability observed: 40.2%

So for CC(C)(Cc1ccccc1)NCC(O)c1ccc(O)c(NS(C)(=O)=O)c1 (stereo not drawn) [Zinterol hydrochloride] , the logged cell viability turned out to be 95.8%

Noted for Fc1ccc(CNc2ncnc3ccc(F)cc23)cc1 : its cell viability reads 79.4%
